Test system: Rhizoctonia solani
Assay: Antifungal activity against Rhizoctonia solani at 50 ug/ml
Format: functional
quantityName: inhibition at 50 µg/mL (%)
Only the number, expressed in %, is required.

Q: Suppose we examine the compound CC(C)c1ccc2c(c1)CC[C@H]1[C@@](CNC(=O)c3ccccn3)(Cc3ccc(F)cc3)CCC[C@]21C ; what inhibition at 50 µg/mL value has been reported?
Ans: 1.2

Q: Suppose we examine the compound CC(C)c1ccc2c(c1)CC[C@H]1[C@@](CNC(=O)c3ccccn3)(Cc3cccc(C(F)(F)F)c3)CCC[C@]21C ; what inhibition at 50 µg/mL value has been reported?
Ans: 8.2

Q: Suppose we examine the compound CC(C)c1ccc2c(c1)CC[C@H]1[C@@](CN)(Cc3ccc(Cl)cc3)CCC[C@]21C ; what inhibition at 50 µg/mL value has been reported?
Ans: 80.6

====

System: Fusarium graminearum
Experiment: Antifungal activity against Gibberella zeae at 50 ug/ml
Format: functional
Decision: inhibition at 50 µg/mL >= 4% yields criterion met, all other cases yield criterion not met.

Look over these answered cases.
Q: Determine whether this compound has inhibition at 50 µg/mL no lower than 4%: CC(C)c1ccc2c(c1)CC[C@H]1[C@@](CNC(=O)c3ccccn3)(Cc3ccc(C(F)(F)F)cc3)CCC[C@]21C
Ans: criterion not met

Q: Determine whether this compound has inhibition at 50 µg/mL no lower than 4%: COc1cccc(C[C@@]2(CNC(=O)c3ccccn3)CCC[C@]3(C)c4ccc(C(C)C)cc4CC[C@@H]23)c1
Ans: criterion not met

Q: Determine whether this compound has inhibition at 50 µg/mL no lower than 4%: CC(C)c1ccc2c(c1)CC[C@H]1[C@@](CNC(=O)c3ccccn3)(Cc3ccc(Br)cc3)CCC[C@]21C
Ans: criterion not met

Q: Determine whether this compound has inhibition at 50 µg/mL no lower than 4%: CC(C)c1ccc2c(c1)CC[C@H]1[C@@](CNC(=O)c3ccccn3)(Cc3ccccc3)CCC[C@]21C
Ans: criterion not met

Q: Determine whether this compound has inhibition at 50 µg/mL no lower than 4%: CC(C)c1ccc2c(c1)CC[C@H]1[C@@](CN)(Cc3ccc(C(C)(C)C)cc3)CCC[C@]21C
Ans: criterion not met

Q: Determine whether this compound has inhibition at 50 µg/mL no lower than 4%: COc1ccccc1C[C@@]1(CNC(=O)c2ccccn2)CCC[C@]2(C)c3ccc(C(C)C)cc3CC[C@@H]12
Ans: criterion not met

Q: Determine whether this compound has inhibition at 50 µg/mL no lower than 4%: CC(C)c1ccc2c(c1)CC[C@H]1[C@@](CNC(=O)c3ccccn3)(Cc3ccccc3C#N)CCC[C@]21C
Ans: criterion not met

Q: Determine whether this compound has inhibition at 50 µg/mL no lower than 4%: COc1ccc(C[C@@]2(CN)CCC[C@]3(C)c4ccc(C(C)C)cc4CC[C@@H]23)cc1
Ans: criterion met

Q: Determine whether this compound has inhibition at 50 µg/mL no lower than 4%: O=C(Nc1ccccc1-c1ccc(Cl)cc1)c1cccnc1Cl
Ans: criterion met

Q: Determine whether this compound has inhibition at 50 µg/mL no lower than 4%: CC(C)c1ccc2c(c1)CC[C@H]1[C@@](CN)(Cc3ccc(C(F)(F)F)cc3)CCC[C@]21C
Ans: criterion met

New cases:
Q: Determine whether this compound has inhibition at 50 µg/mL no lower than 4%: CC(C)c1ccc2c(c1)CC[C@H]1[C@@](CNC(=O)c3ccccn3)(Cc3ccc(Cl)cc3)CCC[C@]21C
Ans: criterion met

Q: Determine whether this compound has inhibition at 50 µg/mL no lower than 4%: CC(C)c1ccc2c(c1)CC[C@H]1[C@@](CNC(=O)c3ccccn3)(Cc3ccc(C#N)cc3)CCC[C@]21C
Ans: criterion not met

Q: Determine whether this compound has inhibition at 50 µg/mL no lower than 4%: COc1ccccc1C[C@@]1(CN)CCC[C@]2(C)c3ccc(C(C)C)cc3CC[C@@H]12
Ans: criterion met

Q: Determine whether this compound has inhibition at 50 µg/mL no lower than 4%: CCOC(=O)c1ccc(C[C@@]2(CNC(=O)c3ccccn3)CCC[C@]3(C)c4ccc(C(C)C)cc4CC[C@@H]23)cc1
Ans: criterion met

Q: Determine whether this compound has inhibition at 50 µg/mL no lower than 4%: CC(C)c1ccc2c(c1)CC[C@H]1[C@@](CNC(=O)c3ccccn3)(Cc3ccc(N)cc3)CCC[C@]21C
Ans: criterion not met

Q: Determine whether this compound has inhibition at 50 µg/mL no lower than 4%: CC(C)c1ccc2c(c1)CC[C@H]1[C@@](CNC(=O)c3ccccn3)(Cc3cccc(C#N)c3)CCC[C@]21C
Ans: criterion met

Q: Determine whether this compound has inhibition at 50 µg/mL no lower than 4%: CC(C)c1ccc2c(c1)CC[C@H]1[C@@](CNC(=O)c3ccccn3)(Cc3ccc(C(C)(C)C)cc3)CCC[C@]21C
Ans: criterion met

Q: Determine whether this compound has inhibition at 50 µg/mL no lower than 4%: CC(C)c1ccc2c(c1)CC[C@H]1[C@@](CN)(Cc3ccc(Cl)cc3)CCC[C@]21C
Ans: criterion met

Q: Determine whether this compound has inhibition at 50 µg/mL no lower than 4%: CC(C)c1ccc2c(c1)CC[C@H]1[C@@](CNC(=O)c3ccccn3)(Cc3ccc(OC(F)(F)F)cc3)CCC[C@]21C
Ans: criterion not met

Q: Determine whether this compound has inhibition at 50 µg/mL no lower than 4%: Cc1ccc(C[C@@]2(CNC(=O)c3ccccn3)CCC[C@]3(C)c4ccc(C(C)C)cc4CC[C@@H]23)cc1C
Ans: criterion not met

Q: Determine whether this compound has inhibition at 50 µg/mL no lower than 4%: CC(C)c1ccc2c(c1)CC[C@H]1[C@@](CNC(=O)c3ccccn3)(Cc3cccc(C(F)(F)F)c3)CCC[C@]21C
Ans: criterion not met

Q: Determine whether this compound has inhibition at 50 µg/mL no lower than 4%: COc1ccc(C[C@@]2(CNC(=O)c3ccccn3)CCC[C@]3(C)c4ccc(C(C)C)cc4CC[C@@H]23)cc1
Ans: criterion met

Q: Determine whether this compound has inhibition at 50 µg/mL no lower than 4%: CC(C)c1ccc2c(c1)CC[C@H]1[C@@](CNC(=O)c3ccccn3)(Cc3ccc(F)cc3)CCC[C@]21C
Ans: criterion not met
